Entry source: PubChem BioAssay AID248

I'd be grateful if you could share measured T/C for these entries.
Test system: L1210 leukemia ip in BDF1 mice, survival T/C
experiment_description: NCI In Vivo Anticancer Drug Screen. Data for tumor model L1210 Leukemia (intraperitoneal) in B6D2F1 (BDF1) mice
test_conditions: endpoint: mean survival time; dose: 100.0 mg/kg/injection; schedule: Q04DX003 (ip); vehicle: saline with Tween-80; higher = longer survival
Toxic doses and inconclusive results are not listed.

Notebook: CCCC1(CCC)NC(=O)N(CC(N)=O)C1=O , T/C read as 100 % of control

Notebook: CN(C)/N=C/c1ccccc1C(=O)O , T/C read as 97 % of control

Notebook: N=C(CCCc1ccccc1)SCc1ccccc1 , T/C read as 93 % of control

Notebook: COc1ccc(Cl)cc1NC(=O)Oc1ccc(C(C)=O)cc1 , T/C read as 90 % of control

Notebook: CC[N+](C)(CC)/N=C(\C)c1ccccc1 , T/C read as 105 % of control

Notebook: O=C1Nc2ccccc2/C1=N/N=C/c1cc(Cl)cc(Cl)c1O , T/C read as 90 % of control

Notebook: O=C(O)C1C2CCC1C2 (configuration not stated) , T/C read as 98 % of control

Notebook: c1ccc(N=NC2(c3ccccc3)CCC(c3ccccc3)=NN2c2ccccc2)cc1 (configuration not stated) , T/C read as 100 % of control

Notebook: O=C(C(=O)c1ccc(Cl)cc1)c1ccc(Cl)cc1 , T/C read as 86 % of control

Notebook: NC1C2C3CCC(C(C(=O)O)C3C(=O)O)C12 (configuration not stated) , T/C read as 89 % of control

Notebook: CC1(C)C2CCC(C2)C1C(=O)O (configuration not stated) , T/C read as 95 % of control

Notebook: O=Cc1csc2ncccc12 , T/C read as 103 % of control

Notebook: C=C(C=O)C1CCC2=C(CCC3(C)C(C(C)CCCC(C)C)CCC23C)C1(C)CCC#N (configuration not stated) , T/C read as 93 % of control

Notebook: Cc1ccc(NS(=O)(=O)c2ccccc2)cc1 , T/C read as 104 % of control

Notebook: C1=CC2C=CC1C2 , T/C read as 89 % of control

Notebook: CC1=NN(c2ccccc2)C(=O)C1(Br)Br , T/C read as 96 % of control

Notebook: CSc1cc(C)c(OC(=O)Nc2c(C)cccc2C)c(CO)c1 , T/C read as 86 % of control

Notebook: COc1ccc(-c2sc(/N=C/c3cc(Br)cc(Br)c3O)c(C#N)c2C)cc1OC , T/C read as 93 % of control

Notebook: C=CC(=O)NC(C)C , T/C read as 102 % of control

Notebook: O=[N+]([O-])c1ccc2nc3c(nc2c1)-c1cccc2cccc-3c12 , T/C read as 97 % of control

Notebook: Brc1ccccc1C=C1c2ccccc2-c2ccccc21 , T/C read as 102 % of control

Notebook: CC1C=CC2CC(O)C12 (configuration not stated) , T/C read as 102 % of control

Notebook: C=C(Br)CNC(=O)Nc1ccccc1 , T/C read as 98 % of control

Notebook: O=C(CCNC(=O)OCc1ccccc1)NC(Cc1ccccc1)C(=O)OCc1ccccc1 (configuration not stated) , T/C read as 103 % of control

Notebook: NC(=O)N/N=C/c1[nH]c(=S)[nH]c(=O)c1Cc1ccccc1 , T/C read as 101 % of control

Notebook: CCCCCCCCCCOc1ccc(OCCCCCCCCC)cc1 , T/C read as 94 % of control

Notebook: O=C(O)c1ccccc1/C=C/c1ccccc1 , T/C read as 104 % of control

###

Tested on: L1210 leukemia ip in BDF1 mice, survival T/C
experiment_description: NCI In Vivo Anticancer Drug Screen. Data for tumor model L1210 Leukemia (intraperitoneal) in B6D2F1 (BDF1) mice
test_conditions: endpoint: mean survival time; dose: 15.0 mg/kg/injection; schedule: Q01DX001 (ip); vehicle: carboxymethylcellulose (CMC); higher = longer survival
Inconclusive results and toxic doses are left out.
measured_quantity: T/C

Notebook: NC(=S)c1cn(C2OC(CO)C(O)C2O)c2ncnc(N)c12 (centres undefined) , T/C read as 122 % of control

Notebook: O=NN(CCCl)C(=O)NN1CCCCCC1 , T/C read as 101 % of control

Notebook: OCC1(c2ccccc2)CCCC1(CO)c1ccccc1 (centres undefined) , T/C read as 95 % of control

Notebook: COC(CC[P+](c1ccccc1)(c1ccccc1)c1ccccc1)(C(=O)c1ccccc1)c1ccccc1 (centres undefined) , T/C read as 96 % of control

###

Test system: L1210 leukemia ip in BDF1 mice, survival T/C
experiment_description: NCI In Vivo Anticancer Drug Screen. Data for tumor model L1210 Leukemia (intraperitoneal) in B6D2F1 (BDF1) mice
test_conditions: endpoint: mean survival time; dose: 200.0 mg/kg/injection; schedule: Q01DX009 (ip); vehicle: gum acacia; higher = longer survival
Toxic doses and inconclusive results are not listed.
I'd be grateful if you could share measured T/C for these entries.

Notebook: CC1=NC(C#N)=C(C#N)N=C(c2ccccc2)C1 , T/C read as 91 % of control

Notebook: COc1cccc(CCC(=O)O)c1 , T/C read as 107 % of control

Notebook: O=CC1CC2c3ccccc3C1c1ccccc12 (stereo not given) , T/C read as 95 % of control

Notebook: CCc1ccccc1NC(=O)Nc1ccc(Cl)cc1 , T/C read as 96 % of control

Notebook: NC(c1ccccc1)c1c(O)ccc2ccccc12 (stereo not given) , T/C read as 98 % of control

###

Tested on: L1210 leukemia ip in BDF1 mice, survival T/C
experiment_description: NCI In Vivo Anticancer Drug Screen. Data for tumor model L1210 Leukemia (intraperitoneal) in B6D2F1 (BDF1) mice
test_conditions: endpoint: mean survival time; dose: 5.0 mg/kg/injection; schedule: Q01DX001 (ip); vehicle: saline; higher = longer survival
Method: The antitumor activity of compounds was measured in mice bearing transplantable tumors. Survival or tumor size were measured and the results are expressed as the measurement made in the treated group (T) divided by the measurement made in the vehicle treated control group (C). The tumor model used in this assay is L1210 Leukemia (intraperitoneal) in B6D2F1 (BDF1) mice
Inconclusive results and toxic doses are left out.
I'd be grateful if you could share measured T/C for these entries.

Notebook: Nc1nc2c(=O)[nH]cnc2n1C1OC(CO)C(O)C1O (configuration not stated) , T/C read as 102 % of control

Notebook: Cc1ccc2nc(C)cc(NC(=O)c3ccccc3)c2c1 , T/C read as 110 % of control

Notebook: NC(=S)c1cn(C2OC(CO)C(O)C2O)c2ncnc(N)c12 (configuration not stated) , T/C read as 112 % of control

Notebook: CS(=O)(=O)Oc1nn2c(OS(C)(=O)=O)nnc2s1 , T/C read as 104 % of control

Notebook: CCN(CC)CCCC(C)Nc1ccnc2ccc(-c3ccccc3)cc12 (configuration not stated) , T/C read as 100 % of control

Notebook: COc1cc(N2C(=O)C=CC2=O)ccc1N1C(=O)C=CC1=O , T/C read as 111 % of control

Notebook: CC1(C)N=C(N)N=C(N)N1c1cccc(CCCCc2ccc(Cl)cc2Cl)c1 , T/C read as 94 % of control

###

Test system: L1210 leukemia ip in BDF1 mice, survival T/C
experiment_description: NCI In Vivo Anticancer Drug Screen. Data for tumor model L1210 Leukemia (intraperitoneal) in B6D2F1 (BDF1) mice
test_conditions: endpoint: mean survival time; dose: 100.0 mg/kg/injection; schedule: Q01DX009 (ip); vehicle: saline; higher = longer survival
Toxic doses and inconclusive results are not listed.
I'd be grateful if you could share measured T/C for these entries.

Notebook: CCC1(C)OC(C)C(C)O1 (stereo not drawn) , T/C read as 107 % of control

Notebook: O=C1CNC(=O)N1 , T/C read as 107 % of control

Notebook: Nc1c(S(=O)(=O)O)ccc2c1C(=O)c1ccccc1C2=O , T/C read as 90 % of control

Notebook: CC(=O)N(CCCc1ccccc1)C(C)(C)C , T/C read as 110 % of control

Notebook: COc1cc2cc(-c3cc(OC)c(OC)c(OC)c3)c3c(c2cc1OC)CNC3=O , T/C read as 90 % of control

Notebook: CCOC(=O)C(C)C(=O)C(=O)N=C(N)N (stereo not drawn) , T/C read as 102 % of control

Notebook: CCCCCCC(C)OC(=O)CCCc1ccc(N(CCCl)CCCl)cc1 (stereo not drawn) , T/C read as 116 % of control

Notebook: NCCSC(c1ccccc1)(c1ccccc1)c1ccccc1 , T/C read as 107 % of control

Notebook: CCc1cc(CC)c(S(=O)(=O)O)c(CC)c1CC , T/C read as 90 % of control

Notebook: O/N=C/C=N/O.O/N=C/C=N/O.[Cl][Rh][Cl] , T/C read as 101 % of control

Notebook: Cc1nc2ccccc2c(C)c1-c1c(C)nc2ccccc2c1C , T/C read as 97 % of control

Notebook: O=C(O)/C=C\Cl , T/C read as 96 % of control

Notebook: CNC(=S)N/N=C/C(=N\NC(=S)NC)C(O)C(O)C(O)C(O)CO (stereo not drawn) , T/C read as 91 % of control

Notebook: N=C(N)SCCCN , T/C read as 108 % of control

Notebook: O=C(Cn1ccc(=O)[nH]c1=O)N1CCC2(CC1)SSC1(CCN(C(=O)Cn3ccc(=O)[nH]c3=O)CC1)S2 , T/C read as 106 % of control

Notebook: COc1ccc(OC)c(NC(=O)OCC(Cl)(Cl)Cl)c1 , T/C read as 109 % of control

Notebook: CCC#CC#CCC , T/C read as 96 % of control

Notebook: CCN(CC)CC(=O)NCC(CC)(CCN(C)C)c1cccc2ccccc12 (stereo not drawn) , T/C read as 105 % of control

Notebook: C=CCOCC(O)CO (stereo not drawn) , T/C read as 108 % of control

Notebook: CC(=O)ONc1nc(C)c(CCC2OCCO2)c(SC(=N)N)n1 , T/C read as 109 % of control

Notebook: C=CCC(CC)C(=O)O (stereo not drawn) , T/C read as 104 % of control

Notebook: CC(=O)Nc1onc(C)c1N , T/C read as 98 % of control

Notebook: CC(C)(C)C1CCC(Cl)C(O)C1 (stereo not drawn) , T/C read as 104 % of control

Notebook: Nc1cc(S(N)(=O)=O)ccc1SSc1ccc(S(N)(=O)=O)cc1N , T/C read as 105 % of control

Notebook: O=S(=O)(Oc1ccc(Cl)cc1)c1ccc(Cl)cc1 , T/C read as 88 % of control

Notebook: O=C(CCCl)N1CCN(C(=O)CCCl)CC1 , T/C read as 103 % of control

Notebook: C/C=C/C(=O)OCCN(CC)CC , T/C read as 103 % of control

Notebook: O=C(O)CCN(CCC(=O)O)CCC(=O)O , T/C read as 94 % of control
